We begin with a simple list: items and their reported inhibition.
biological target: Glucose transporter (Leishmania mexicana) (UniProt O61059); assay: ST_JUDE_LEISH: Cytotoxicity at 2uM final concentration against transgenic Leishmania Mexicana promastigotes LmGT2 that are glucose transport deficient and complemented with the L. Mexicana glucose transporter 2. Activity is measured by DNA content using SYBR green in vitro; type: functional

{"Compound": "CCCCCCCCCN(CCC)C(=O)[C@@H]1OC(C(=O)OC(c2ccccc2)c2ccccc2)=C[C@H](NC(=O)OC(C)(C)C)[C@H]1NC(C)=O", "inhibition, %": 1.47}
{"Compound": "CCOc1cc(Cc2cnc(N)nc2N)cc(Br)c1OC", "inhibition, %": 2.29}
{"Compound": "COc1cc2nc(N3CCC(CCCC4CCNCC4)CC3)nc(NCc3ccccn3)c2cc1OC", "inhibition, %": 57.1}
{"Compound": "CC(C)c1sc(-c2ccc(C(C)(C)C)cc2)nc1C(=O)NCCCN1CCCC1=O", "inhibition, %": 1.9}
{"Compound": "COC(=O)C(C)(C)Cc1c(SC(C)(C)C)c2cc(C(C)C)ccc2n1Cc1ccc(Cl)cc1", "inhibition, %": -0.32}
{"Compound": "COc1ccc(CNc2ccnc3cc(OC)ccc23)cc1", "inhibition, %": 3.66}
{"Compound": "O=C(NCC1CC1)C1CCN(C(c2ccccc2)c2nc3ccccc3s2)CC1 (stereo not given)", "inhibition, %": -4.85}
{"Compound": "CSc1ccccc1NC(=S)NC1CCN(CCCCCNC(=O)/C=C/c2ccc(Cl)c(Cl)c2)CC1", "inhibition, %": 4}
{"Compound": "O=C(Cc1c[nH]cn1)Nc1cccc(-c2cccc(-c3nc4cc(C(F)(F)F)ccc4[nH]3)c2)c1", "inhibition, %": 10.4}
{"Compound": "C=C(C)Cn1cc(C2CCN(CCN3CCC(CNC(=O)c4ccc(-c5ccc(C#N)cc5)cc4)CC3)CC2)c2ccccc21", "inhibition, %": 5.17}
{"Compound": "CN1CCN(c2ccc(Nc3ncc(C#N)c(Nc4ccccc4C(N)=O)n3)cc2)CC1", "inhibition, %": 55.1}
{"Compound": "Cc1cc(N(C)C2CCN(C)C2)nc(Nc2ccc(Cl)cc2)n1 (stereo not given)", "inhibition, %": 4.14}
{"Compound": "Cc1ccc(S(=O)(=O)n2nccc2-c2c(-c3ccc(Cl)cc3)noc2C)cc1", "inhibition, %": 2.23}
{"Compound": "Cc1ccc(Nc2nccc(NCC(O)c3cccc(F)c3)n2)cc1 (stereo not given)", "inhibition, %": -0.59}
{"Compound": "CN(Cc1ccccc1)C1CCCN(c2cc(NC(=O)c3ccc(F)cc3)ccn2)C1 (stereo not given)", "inhibition, %": 0.07}
{"Compound": "COc1ccc(Nc2nccc(-c3ccc4ccnc(NCCCCN)c4c3)n2)cc1", "inhibition, %": -4.14}
{"Compound": "N#Cc1cccc(C(=O)NC2CCN(c3ccnc(Nc4ccc(F)cc4)n3)C2)c1 (stereo not given)", "inhibition, %": 0.63}
{"Compound": "COc1ccc2[nH]c(C)cc(=NN=Cc3cc(C)ccc3O)c2c1", "inhibition, %": 8.77}
{"Compound": "CCCCCCN(C(=O)OCc1ccccc1)C1CCN(C(=O)OC(C)(C)C)CC1C(=O)OCC (stereo not given)", "inhibition, %": 7.27}
{"Compound": "CCN(CC)C(=S)N/N=C1/C(=O)Nc2c(C)cccc21", "inhibition, %": 1.52}

---

Item-by-item account of inhibition
molecular target: Hexose transporter 1 (Plasmodium falciparum) (UniProt O97467); experiment: ST_JUDE_LEISH: Cytotoxicity at 2uM final concentration against transgenic Leishmania Mexicana promastigotes LmPfHT that are glucose transport deficient and complemented with the Plasmodium falciparum hexose transporter. Activity is measured by DNA content using SYBR green in vitro; assay type: functional

{"Compound": "O=S(=O)(Nc1cccc(CCN2CCC(N3CCCCC3)CC2)c1)c1cccc2ccccc12", "inhibition": "2.76%"}
{"Compound": "COc1ccc2nccc(NC(=O)N3CCC(NCCOc4cc(F)cc(F)c4)CC3)c2n1", "inhibition": "12.1%"}
{"Compound": "CN1CCCC(CN2CCN(Cc3ccc(-c4ccc(-c5nc6ccccc6[nH]5)s4)cc3)CC2)C1 (centres undefined)", "inhibition": "34.8%"}
{"Compound": "Cc1cc(N(C)C2CCN(C)C2)nc(Nc2ccc(Cl)cc2)n1 (centres undefined)", "inhibition": "8.61%"}
{"Compound": "CCCCNC(=O)c1[nH]c2c(NC(=O)COc3ccccc3)cccc2c1-c1cccc(NC(=O)C(N)CO)c1 (centres undefined)", "inhibition": "9.02%"}
{"Compound": "CC1CCN(Cc2c(O)ccc3c(CN4CCC(C)CC4)c(O)ccc23)CC1", "inhibition": "6.78%"}
{"Compound": "Cc1ccc(S(=O)(=O)N2CCCN(C(=O)c3cc(-c4ccccc4)[nH]n3)CC2)cc1", "inhibition": "0.45%"}
{"Compound": "COc1ccc(C(=O)Nc2ccc3nc(N4CCCCC4)cc(C)c3c2)cc1OC", "inhibition": "-0.36%"}
{"Compound": "O=C(NCCc1ccccc1)N(Cc1cccc(-c2ccc(CNCCc3ccccc3)cc2)c1)C1CCN(Cc2ccccc2)CC1", "inhibition": "-0.75%"}

---

target: Glucose transporter (Leishmania mexicana); experiment: ST_JUDE_LEISH: Cytotoxicity at 2uM final concentration against transgenic Leishmania Mexicana promastigotes LmGT2 that are glucose transport deficient and complemented with the L. Mexicana glucose transporter 2. Activity is measured by DNA content using SYBR green in vitro; format: functional
Measured quantity: inhibition (%)

{"Compound": "CCOc1cc(C(C)C)ccc1C1CCN(CCCCNC(=O)c2ccc(NC(=O)c3ccc(Cl)cc3)cc2)CC1", "Target desc": "Glucose transporter (Leishmania mexicana)", "Readout value": 2.65}
{"Compound": "COc1cccc2cc(C(=O)N[C@@H](CC(C)C)C(=O)N[C@H](C=NNC(=O)OC(C)(C)C)Cc3ccccc3)oc12", "Target desc": "Glucose transporter (Leishmania mexicana)", "Readout value": 4.09}
{"Compound": "COc1ccc2nccc([C@@H](O)CN3CCC(NCc4cc5ccccc5o4)CC3)c2c1", "Target desc": "Glucose transporter (Leishmania mexicana)", "Readout value": 5.59}
{"Compound": "Cc1ccc(CNC(=O)[C@H](Cc2ccccc2)Nc2cc(C)nc(NCCc3ccc(F)cc3)n2)cc1", "Target desc": "Glucose transporter (Leishmania mexicana)", "Readout value": 10.6}
{"Compound": "O=C(NCCCCCN1CCC(c2c[nH]c3ccccc23)CC1)Nc1cccc(C(F)(F)F)c1", "Target desc": "Glucose transporter (Leishmania mexicana)", "Readout value": -2.66}
{"Compound": "CC(C)CNCc1ccc(-c2cccc(CNc3ccc4ncccc4c3)c2)cc1", "Target desc": "Glucose transporter (Leishmania mexicana)", "Readout value": 2.69}
{"Compound": "COc1cccc(Nc2nc(NCCO)c3ccccc3n2)c1", "Target desc": "Glucose transporter (Leishmania mexicana)", "Readout value": 5.17}
{"Compound": "Cc1ccn2c(N(Cc3ccccc3)C(=O)c3ccc(Cl)c(Cl)c3)c(-c3ccccc3)nc2c1", "Target desc": "Glucose transporter (Leishmania mexicana)", "Readout value": 0.79}
{"Compound": "CC[C@H](C)CNC(=O)c1cncc(-c2ccc(CN(C)C3CCN(C)CC3)cc2)c1", "Target desc": "Glucose transporter (Leishmania mexicana)", "Readout value": 5.08}
{"Compound": "CCC1(C)CC(CCNCc2ccccc2O)(c2ccccc2OC)CCO1 (centres undefined)", "Target desc": "Glucose transporter (Leishmania mexicana)", "Readout value": 0.88}
{"Compound": "O=C(NC1CCCCC1)N(Cc1cccc(-c2ccc(CNCCc3ccccc3)cc2)c1)C1CCN(Cc2ccccc2)CC1", "Target desc": "Glucose transporter (Leishmania mexicana)", "Readout value": 4.45}
{"Compound": "O=C(Nc1cccc(CN2CCCN(Cc3cccc(O)c3)CC2)c1)c1ccc(Cl)c(Cl)c1", "Target desc": "Glucose transporter (Leishmania mexicana)", "Readout value": 13.8}
{"Compound": "CCCc1ccc(NC(=O)c2ccc(CN3CCCN(Cc4ccc(OC)cc4)CC3)cc2)cc1", "Target desc": "Glucose transporter (Leishmania mexicana)", "Readout value": -0.74}
{"Compound": "Nc1ncc(-c2cccc(F)c2)cc1-c1nc2cc(F)ccc2[nH]1", "Target desc": "Glucose transporter (Leishmania mexicana)", "Readout value": 6.56}
{"Compound": "CCc1c(CCNCCCCCCNCCc2ccc(OC)c(OC)c2C)ccc(OC)c1OC", "Target desc": "Glucose transporter (Leishmania mexicana)", "Readout value": 12.1}
{"Compound": "CS(=O)(=O)c1ccc(CCNCc2ccc(-c3ccc(CN(C(=O)c4ccc(Cl)nc4)C4CCN(Cc5ccccc5)CC4)cc3)nc2)cc1", "Target desc": "Glucose transporter (Leishmania mexicana)", "Readout value": 1.67}
{"Compound": "CC(C)(C)c1ccc2[nH]c(-c3ccc(C(=O)NCc4cccc(C(F)(F)F)c4)cc3)nc2c1", "Target desc": "Glucose transporter (Leishmania mexicana)", "Readout value": 3.09}
{"Compound": "CCC(CC)CN1C(=O)C(c2ccccc2)(c2ccccc2)N=C1N", "Target desc": "Glucose transporter (Leishmania mexicana)", "Readout value": 6.88}
{"Compound": "CCCNC(=O)c1cncc(-c2ccc(CNC(CC)c3ccccc3)cc2)c1 (centres undefined)", "Target desc": "Glucose transporter (Leishmania mexicana)", "Readout value": -0.14}
